These data points were gathered from paper PMC9589333.

assay: Phase Ic study: pharmacokinetics of BI 1015550 in plasma; type: in vivo, human; conditions: gMean; IPF, 18 mg twice daily, day 1 after first dose, n=10; gCV 23.1%
parameter measured: Cmax (nM)
Numeric only. Scale: nM

Prompt line: # return recorded Cmax for input [O-][S+]1CCc2nc(N3CCC(c4ncc(Cl)cn4)CC3)nc(NC3(CO)CCC3)c21 (stereo not shown)
Response line: 277

====

experiment: Phase I study: pharmacokinetics of BI 1015550 in plasma and urine; format: in vivo, human; conditions: gMean; SRD 36 mg, fasted, n=6; gCV 20.7%
parameter measured: Cmax (nM)
Numeric only. Scale: nM

Prompt line: # return recorded Cmax for input [O-][S+]1CCc2nc(N3CCC(c4ncc(Cl)cn4)CC3)nc(NC3(CO)CCC3)c21 (stereo not shown) [BI 1015550]
Response line: 710
